# target: human ether-à-go-go-related gene (hERG) potassium channel (human, UniProt Q12809)
# Sequence (Q12809 whole entry, looked up): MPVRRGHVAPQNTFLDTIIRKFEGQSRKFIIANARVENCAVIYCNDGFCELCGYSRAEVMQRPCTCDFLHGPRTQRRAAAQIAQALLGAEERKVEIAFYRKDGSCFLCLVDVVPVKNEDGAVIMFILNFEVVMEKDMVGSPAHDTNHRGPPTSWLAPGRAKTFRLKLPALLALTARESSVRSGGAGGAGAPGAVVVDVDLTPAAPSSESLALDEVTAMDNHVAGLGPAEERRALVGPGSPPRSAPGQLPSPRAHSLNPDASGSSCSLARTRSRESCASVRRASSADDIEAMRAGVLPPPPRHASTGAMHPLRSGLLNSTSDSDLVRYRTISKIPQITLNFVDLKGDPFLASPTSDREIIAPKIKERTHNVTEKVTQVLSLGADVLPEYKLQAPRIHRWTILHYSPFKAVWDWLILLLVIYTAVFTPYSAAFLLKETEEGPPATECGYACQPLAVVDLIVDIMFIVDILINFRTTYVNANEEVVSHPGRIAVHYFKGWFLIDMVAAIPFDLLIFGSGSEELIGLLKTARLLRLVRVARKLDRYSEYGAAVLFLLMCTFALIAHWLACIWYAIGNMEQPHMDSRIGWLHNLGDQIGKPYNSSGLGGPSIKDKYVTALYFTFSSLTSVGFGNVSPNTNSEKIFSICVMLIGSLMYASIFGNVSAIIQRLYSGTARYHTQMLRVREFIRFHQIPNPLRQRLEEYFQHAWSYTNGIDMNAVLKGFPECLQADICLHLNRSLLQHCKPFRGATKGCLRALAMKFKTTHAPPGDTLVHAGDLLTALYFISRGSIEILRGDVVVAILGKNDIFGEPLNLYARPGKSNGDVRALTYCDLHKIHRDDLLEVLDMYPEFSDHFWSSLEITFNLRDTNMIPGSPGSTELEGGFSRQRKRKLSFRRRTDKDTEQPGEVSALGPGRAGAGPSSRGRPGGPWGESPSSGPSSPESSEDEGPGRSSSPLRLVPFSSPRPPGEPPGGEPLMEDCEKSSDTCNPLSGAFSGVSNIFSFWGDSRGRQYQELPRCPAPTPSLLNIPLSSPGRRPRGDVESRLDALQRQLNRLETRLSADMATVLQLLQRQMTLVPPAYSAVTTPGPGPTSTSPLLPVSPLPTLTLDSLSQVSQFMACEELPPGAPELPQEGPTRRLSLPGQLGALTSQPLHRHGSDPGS
# assay: primary screen, population patch clamp on CHO cells stably expressing hERG; higher = less effect of the substance
The whole screen tested about 310,000 compounds, of which about 14,000 (4.5%) showed an effect of 50% or more. Effects have a minus sign here. The list comes from a sample in which strong results are over-represented; it also holds close analogues and randomly drawn compounds.
Listed here: items and their measured hERG current change (%, negative = inhibition) at 10uM.
Please reply with the bare figure in % and do not write the unit itself.

Lab note: `Cc1oc(S(=O)(=O)N2CCCCC2)cc1NC(=O)Nc1ccc(F)cc1` gave hERG current change (%, negative = inhibition) at 10uM of 3.43

Recorded result, `CCCCNc1c(-c2ccc(-c3ccc(C(C)=O)cc3)c(OC)c2)nc2cnccn12.O=C(O)C(F)(F)F` , hERG current change (%, negative = inhibition) at 10uM: -52.3

hERG current change (%, negative = inhibition) at 10uM reported for this compound N#CCOC(=O)C1CSC2(c3ccc(Br)cc3)CCC(=O)N12 (stereo not shown) : 8.43

Quick note, hERG current change (%, negative = inhibition) at 10uM for CCCc1[nH]nc2c1C(c1ccc(O)c(OC)c1)C(C#N)=C(N)O2 (stereo not shown) landed at -31.9

* * *

As shown below, each of these molecules has a reported hERG current change (%, negative = inhibition) at 10uM value.
# target: human ether-à-go-go-related gene (hERG) potassium channel (human, UniProt Q12809)
# assay: primary screen, population patch clamp on CHO cells stably expressing hERG; higher = less effect of the substance
Hit rate of the full screen: of about 310,000 compounds, about 14,000 (4.5%) showed an effect of 50% or more. The effect is printed as a negative number. The full list was thinned out, with strong results kept by preference.
Write the answer as a number in %, unit excluded.

Solved entries:
>>> measured_result("Nc1nc(-c2ccc(Cl)cc2)nn1C(=O)c1ccco1")
23.3
>>> measured_result("Cc1sc2ncnc(SCC(=O)N3CCN(C(=O)c4ccco4)CC3)c2c1C")
-70.1

For this molecule ( `COc1ccc(N2CCN(C(=O)CSc3ncnc4c3cnn4-c3ccccc3C)CC2)cc1` ), measured hERG current change (%, negative = inhibition) at 10uM is 10.8

* * *

This listing pairs compounds with measured hERG current change (%, negative = inhibition) at 10uM.
# target: human ether-à-go-go-related gene (hERG) potassium channel (human, UniProt Q12809);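 note: peak tail current of the secondary pulse compared with the same well before compound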
# assay: primary screen, population patch clamp on CHO cells stably expressing hERG; higher = less effect of the substance
Out of some 310,000 compounds screened, about 14,000 (4.5%) showed an effect of 50% or more. Effects have a minus sign here. Many of the other results were omitted from the sample, so strong results are more common in it than they were.
Express it in %; write the number only.

Some solved cases for reference:
>>> measured_result("CCCCC(=O)N1CCN(c2nc3ccc(Br)cc3s2)CC1")
-69.4
>>> measured_result("COC(=O)c1ccccc1C(=O)N1CCOCCN(C(=O)c2ccccc2C(=O)OC)CCOCC1")
0.0748
>>> measured_result("O=C(CN1C(=O)S/C(=C\\c2cccc(Cl)c2)C1=O)NCCCn1ccnc1")
-51.2
>>> measured_result("O=C(NCc1ccc2c(c1)OCO2)C1CC(=O)N(CCc2ccc(Cl)cc2)C1 (centres unmarked)")
-54.1
>>> measured_result("COc1ccccc1CCCNC(=O)C1CCC(=O)N(Cc2ccccc2F)C1 (centres unmarked)")
-1.76
>>> measured_result("O=C(NCc1ccc2c(c1)OCO2)C1CC(=O)N(CCc2ccccc2)C1 (centres unmarked)")
3.54

The recorded hERG current change (%, negative = inhibition) at 10uM for entry `O=C(Nc1ccccc1N1CCOCC1)c1ccc(Cl)c(S(=O)(=O)NCc2ccco2)c1` equals -51.8

Value of measured hERG current change (%, negative = inhibition) at 10uM for the entry `COCCn1c(=S)[nH]c2cc(C(=O)NCCc3ccccc3)ccc2c1=O` : -2.2

hERG current change (%, negative = inhibition) at 10uM in this record for `COCCn1c(=N)c(C(=O)NCCc2ccccc2)cc2c(=O)n3cccc(C)c3nc21` : -82.9

Lab note: measured hERG current change (%, negative = inhibition) at 10uM of `CC(C)c1ccc(/C=C2\SC(=O)N(CC(=O)NCCCn3ccnc3)C2=O)cc1` was -76.9

Lab book: hERG current change (%, negative = inhibition) at 10uM of `O=C(C1CCN(c2nc3ccc(Br)cc3s2)CC1)N1CCC2(CC1)OCCO2` noted as -62.3

O=C(NCc1ccncc1)C1CCC(=O)N(CCc2ccc(Cl)cc2)C1 (centres unmarked) yielded hERG current change (%, negative = inhibition) at 10uM of -65.5

hERG current change (%, negative = inhibition) at 10uM reading for `CCc1ccc2nc(N3CCC(C(=O)N4CCC5(CC4)OCCO5)CC3)sc2c1` : -42.5

In plain terms, COc1ccccc1NC(=O)C(C)N(C)CCOc1ccccc1 (centres unmarked) has a documented hERG current change (%, negative = inhibition) at 10uM of 16.5

* * *

// reported hERG current change (%, negative = inhibition) at 10uM for each item listed
# target: human ether-à-go-go-related gene (hERG) potassium channel (human);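 note: peak tail current of the secondary pulse compared with the same well before compound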
# assay: primary screen, population patch clamp on CHO cells stably expressing hERG; higher = less effect of the substance
The whole screen tested about 310,000 compounds, of which about 14,000 (4.5%) showed an effect of 50% or more. Effects have a minus sign here. The sample holds strong results, similar compounds and a random draw of the others, so the mix is not that of the screen.
Quick note: give the figure in %, leave out the unit.

Example entries and their recorded answers appear below.
>>> measured_result("O=c1c2ccccc2ncn1C1CCCCC1")
-19.4
>>> measured_result("CCN1CCSc2ccc(C(=O)Nc3ccc(NC(C)=O)cc3)cc21")
1.22
>>> measured_result("CC(C)(C)c1ccc(/C=C2/SC(N3CCCC3)=NC2=O)cc1")
-51.1
>>> measured_result("CC1CCN(C2=NC(=O)/C(=C/c3ccc(O)cc3)S2)CC1")
-24.7
>>> measured_result("CCOC(=O)C1CCN(C2=NC(=O)/C(=C/c3ccc(Cl)cc3)S2)CC1")
-64.8
>>> measured_result("Cc1ccc(/C=C2\\SC(N3CCCCC3)=NC2=O)cc1")
0.193

# evaluate next
Item `CCOC(=O)C1CCN(C2=NC(=O)/C(=C/c3ccccc3OC)S2)CC1` was tested on human ether-à-go-go-related gene (hERG) potassium channel (human); the reported hERG current change (%, negative = inhibition) at 10uM is -22.9

* * *

Measured hERG current change (%, negative = inhibition) at 10uM, listed per entry.
# target: human ether-à-go-go-related gene (hERG) potassium channel (human, UniProt Q12809);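 note: peak tail current of the secondary pulse compared with the same well before compound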
# assay: primary screen, population patch clamp on CHO cells stably expressing hERG; higher = less effect of the substance
Out of some 310,000 compounds screened, about 14,000 (4.5%) showed an effect of 50% or more. The effect is printed as a negative number. The full list was thinned out, with strong results kept by preference.

Known results for molecules:
>>> measured_result("O=C(CN1CCN(c2ccccc2F)CC1)Nc1ccccc1F")
"-1.86%"
>>> measured_result("O=C(CCN1CCN(c2ccccc2F)CC1)Nc1ccccc1Cl")
"-2.49%"
>>> measured_result("O=[N+]([O-])c1ccc(N2CCN(C(=S)NCc3ccc(Cl)cc3)CC2)cc1")
"-8.05%"

Quick note, hERG current change (%, negative = inhibition) at 10uM for `COCCNC(=S)N1CCN(c2ccc(Cl)cc2)CC1` landed at -12.9%

* * *

# target: human ether-à-go-go-related gene (hERG) potassium channel (human);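 note: peak tail current of the secondary pulse compared with the same well before compound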
# assay: primary screen, population patch clamp on CHO cells stably expressing hERG; higher = less effect of the substance
The whole screen tested about 310,000 compounds, of which about 14,000 (4.5%) showed an effect of 50% or more. The effect is printed as a negative number. Only a selection was taken, and strong results are over-represented in it overall.
The following molecules are shown together with reported hERG current change (%, negative = inhibition) at 10uM values.
Please state the figure in %; there is no need to write the unit.

>>> measured_result("CN1C(C(=O)NCc2ccco2)CC2Cn3c(nc4cc5ccccc5cc43)C21 (centres unmarked)")
-38.6
>>> measured_result("CC1(C)NC(=O)N(CC(=O)NNC(=O)c2ccccc2F)C1=O")
3.42
>>> measured_result("O=C(Nc1cc(C(F)(F)F)ccc1N1CCOCC1)c1cn2ccccc2n1")
-2.98
>>> measured_result("COc1ccc(C(=O)C2CCCN(Cc3cn(C)nc3-c3ccccc3)C2)cc1F (centres unmarked)")
-72.4
>>> measured_result("O=c1cc(-c2ccccc2)cc(-c2ccccc2)n1CCCO")
-31.9

Entry `O=C(CSc1nnc(NC(=O)c2c(F)cccc2F)s1)NC1CC1` , hERG current change (%, negative = inhibition) at 10uM reported as 21.9

The molecule listed as CN1C(C(=O)NCc2cccc(Br)c2)CC2Cn3c(nc4cc5ccccc5cc43)C21 (centres unmarked) shows hERG current change (%, negative = inhibition) at 10uM equal to -62

hERG current change (%, negative = inhibition) at 10uM measured on `O=C(O)c1cccc(NS(=O)(=O)c2ccc(Oc3ccc(S(=O)(=O)Nc4cccc(C(=O)O)c4)cc3)cc2)c1` = 20.3
